- EXPERIMENTAL_SYSTEM: T1, AtPIF3-bHLH H348A (Arabidopsis thaliana, UniProt O80536 340-397, H348A)
- T1 sequence: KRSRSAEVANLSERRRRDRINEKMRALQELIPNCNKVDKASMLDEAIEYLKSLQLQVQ
- ASSAY_PROTOCOL: ITC; binding curve unsaturated; ITC: 30 mM HEPES, 125 mM NaCl, pH 7.5, 25 C, 400 uM protein into 40 uM DNA; fEMSA: 30 mM HEPES, 500 mM NaCl, pH 7.4, on ice 30 min, 3 uM probe, 10% native gel in 0.5x TBE at 4 C
- DETAILS: protein: recombinant; tags: C-terminal His6; chain copies: 2; blunt
EXPERIMENTAL_ENDPOINT: Kd (µM)
Give bare numbers, in µM.

query: Provide one value: measured Kd of G-box (PER2), ITC (dsDNA) DNA 1: AGGAACACGTGACCC DNA 2: GGGTCACGTGTTCCT
result: 3.39
